assay: in vitro; conditions: human, hela cells, % viability
value_type: viability at 28.5 h, 10 µM (%)
Just the number please, in %, no unit attached.

Some solved cases for reference:
{"columns": ["compound", "viability at 28.5 h, 10 µM [%]"],
 "data": [
  ["O=C(Cc1noc2ccccc12)Nc1ccc(N2CCCS2(=O)=O)cc1", 107],
  ["CN1C[C@@H](C(=O)N(C)C)[C@@]2(CCc3ccccc3C(=O)N2)C1", 102],
  ["O=C(O)c1ccccc1C(=O)N1CCC2(CC1)OCCc1c2[nH]c2ccccc12", 94.9],
  ["O=C(c1cccnc1)N1CCC(c2cc3ccccc3cn2)CC1", 101],
  ["Cc1cnc(NC(=O)C2CC(=O)N(Cc3cccs3)C2)s1 (stereo not drawn)", 90.9]
]}

Inquiry: Param item = CCN1CC2(CCC1=O)CCN(Cc1cccc(C(C)N(C)C)c1)CC2 (stereo not drawn) ; retrieve measured viability at 28.5 h, 10 µM.
Reply text: 116

Inquiry: Param item = C=CCN(C)C(=O)[C@H]1C[C@@H](O)[C@H](O)[C@@H]2N=C(Nc3cc(C)cc(C)c3)S[C@@H]21 ; retrieve measured viability at 28.5 h, 10 µM.
Reply text: 94.2

Inquiry: Param item = CC(=O)c1ccc(-c2nc(NC(=O)c3ccccn3)cnc2-c2cccc(OC(F)(F)F)c2)s1 ; retrieve measured viability at 28.5 h, 10 µM.
Reply text: 107

Inquiry: Param item = O=C(Nc1ccccc1N1CCOCC1)c1cccc(OCc2ccccc2)c1 ; retrieve measured viability at 28.5 h, 10 µM.
Reply text: 104

Inquiry: Param item = Cc1cccn2c(=O)c(/C=C3\SC(=S)N(C(C)c4ccccc4)C3=O)c(NCCCn3ccnc3)nc12 (stereo not drawn) ; retrieve measured viability at 28.5 h, 10 µM.
Reply text: 92.9

Inquiry: Param item = COCc1nnc(Sc2cc(N3CCCC3)ncn2)s1 ; retrieve measured viability at 28.5 h, 10 µM.
Reply text: 88.4

Inquiry: Param item = Cc1ccc(Nc2cc(N3CCC(C(=O)O)CC3)ncn2)cc1 ; retrieve measured viability at 28.5 h, 10 µM.
Reply text: 104

Inquiry: Param item = Cc1ccccc1OCC(O)CN1CCCC(C(F)(F)F)C1 (stereo not drawn) ; retrieve measured viability at 28.5 h, 10 µM.
Reply text: 103

Inquiry: Param item = CCOc1ccc(-c2n[nH]c(C(=O)N/N=C3/C(=O)Nc4ccccc43)c2C)cc1 ; retrieve measured viability at 28.5 h, 10 µM.
Reply text: 99.6

Inquiry: Param item = CC(=O)N1CCc2c([nH]c3ccccc23)C12CCCN(CCC#N)C2 (stereo not drawn) ; retrieve measured viability at 28.5 h, 10 µM.
Reply text: 91.6

Inquiry: Param item = O=C(O)CCc1nc(-c2ccc3[nH]ccc3c2)no1 ; retrieve measured viability at 28.5 h, 10 µM.
Reply text: 99.3

Inquiry: Param item = CC(C)C(NC(=O)c1cc2c([nH]c1=O)CCC2)c1ccc(F)cc1 (stereo not drawn) ; retrieve measured viability at 28.5 h, 10 µM.
Reply text: 93.4

Inquiry: Param item = CN(C)CCN1C(=O)C(O)=C(C(=O)c2ccc(S(=O)(=O)N3CCOCC3)cc2)C1c1ccc(F)cc1 (stereo not drawn) ; retrieve measured viability at 28.5 h, 10 µM.
Reply text: 104
